Test system: CCRIS mutagenicity, Ames/micronucleus/aberration tests
Test: CCRIS mutagenicity studies
Details: Test System: AMES SALMONELLA TYPHIMURIUM; Strain/Indicator: TA98; Metabolic Activation: RAT, LIVER, S-9, PCB; Method: PREINCUBATION
Activity calls are given as the source filed them. No rule for the calls is given here.
Assign a class; possible classes are yes (1) for active, no (0) for inactive

Example entries and their recorded answers appear below.
compound	assayedTarget	groupLabel
CNc1ccc2ncc(-c3ccccc3)nc2c1C	CCRIS mutagenicity, Ames/micronucleus/aberration tests	yes (1)
C[C@H](CCC(=O)O)[C@H]1CC[C@H]2[C@@H]3C(=O)C[C@@H]4CC(=O)CC[C@]4(C)[C@H]3CC[C@]12C	CCRIS mutagenicity, Ames/micronucleus/aberration tests	no (0)
O=C1c2ccc([N+](=O)[O-])cc2C(=O)N1CCl	CCRIS mutagenicity, Ames/micronucleus/aberration tests	yes (1)
O=C1c2ccccc2C(=O)c2c1ccc(O[C@@H]1O[C@H](CO[C@@H]3OC[C@@H](O)[C@H](O)[C@H]3O)[C@@H](O)[C@H](O)[C@H]1O)c2O	CCRIS mutagenicity, Ames/micronucleus/aberration tests	no (0)
Cc1nc2ccc(N)c(C)c2nc1C	CCRIS mutagenicity, Ames/micronucleus/aberration tests	yes (1)

Asked: # lookup: test call for CNc1ccc2nccnc2c1C
Given back: yes (1)

Asked: Identify the outcome logged in this assay for the compound shown: Cc1c(O)cc2c(c1O)C(=O)c1ccccc1C2=O
Given back: yes (1)

Asked: Test call, this compound: Nc1ccc2nc3ccc(N)cc3nc2c1
Given back: yes (1)

---

System: CCRIS mutagenicity, Ames/micronucleus/aberration tests
Assay: CCRIS mutagenicity studies
Conditions: Test System: E. COLI; Strain/Indicator: WP2 UVRA; Metabolic Activation: HAMSTER, LIVER, S-9, AROCLOR 1254; Method: STANDARD PLATE
The source made the active and inactive calls. How the calls were made is not given here.
Mark one answer only. Choices: active, inactive

Before answering, review these 6 worked examples.
O=C(O)CN(CCN(CC(=O)O)CC(=O)O)CC(=O)O inactive
C1O[C@@H]1[C@@H]1CO1 inactive
O=CNc1nc(-c2ccc([N+](=O)[O-])o2)cs1 active
Clc1cccc(-c2ccc(Cl)c(Cl)c2Cl)c1Cl inactive
S=C(NC1CCCCC1)NC1CCCCC1 inactive
Nc1ccc(S(=O)(=O)c2ccc(N)cc2)cc1 inactive

Asked: Name the outcome recorded for CN(C)c1ccc(N=Nc2ccccc2)cc1 in the assay.
Given back: inactive

Asked: Per the records of this test, what outcome belongs to CCOS(C)(=O)=O ?
Given back: inactive

Asked: Tell me the recorded outcome of this test for Nc1ncn[nH]1 .
Given back: inactive

Asked: Could you please tell me the result logged for Nc1ccc(Cc2ccc(N)cc2)cc1 in this assay?
Given back: inactive

Asked: Would you mind telling me which call this test gave Cc1ccc2nc3c(ccc4ccccc43)c(C)c2c1 ?
Given back: inactive

Asked: Tell me the recorded outcome of this test for CNC(=O)ON=CC(C)(C)SC .
Given back: inactive

---

Tested on: CCRIS mutagenicity, Ames/micronucleus/aberration tests
Assay: CCRIS mutagenicity studies
Conditions: Test System: AMES SALMONELLA TYPHIMURIUM; Strain/Indicator: YG1026; Metabolic Activation: NONE; Method: PREINCUBATION
The source made the active and inactive calls. How the calls were made is not given here.
Hello, when you answer, please use one of the following outcomes: True (active), False (inactive)

Nc1nc(-c2ccc([N+](=O)[O-])cc2)nc2nc[nH]c12 True
Nc1nc(-c2ccc([N+](=O)[O-])cc2)nc2c1ncn2[C@@H]1O[C@H](CO)[C@@H](O)[C@H]1O True
Nc1ncnc2c1ncn2Cc1ccc([N+](=O)[O-])cc1 False

Now look at this one.
Asked: # outcome recorded in this test, key = Nc1ncnc2c1ncn2-c1ccc([N+](=O)[O-])cc1[N+](=O)[O-]
Given back: False

---

Tested on: CCRIS mutagenicity, Ames/micronucleus/aberration tests
Assay: CCRIS mutagenicity studies
Conditions: Test System: AMES SALMONELLA TYPHIMURIUM; Strain/Indicator: TA100; Metabolic Activation: RAT, LIVER, S-9, AROCLOR 1254; Method: STANDARD PLATE
Description: The CCRIS database contains chemical records with carcinogenicity, mutagenicity, tumor promotion, and tumor inhibition test results. It was developed by the National Cancer Institute (NCI). Data are derived from studies cited in primary journals, current awareness tools, NCI reports, and other sources. Test results have been reviewed by experts in carcinogenesis and mutagenesis. CCRIS provides historical information from the years 1985 - 2011. It is no longer updated. […]
Activity calls are given as the source filed them. No rule for the calls is given here.
assayReadout: mutagenic call

compound	mutagenic call
CC(=O)[CH-]C(=O)c1ccccc1.CC(=O)[CH-]C(=O)c1ccccc1.CC[O-].CC[O-].[Ti+4]	inactive; negative
O=C1c2ccccc2Cc2ccccc21	inactive; negative
Cc1ccc2nc3c(c4c(c5ccccc53)O4)c(C)c2c1	inactive; negative
CC1c2ccccc2-c2ccc(F)cc21 (centres undefined)	active; positive
Fc1ccccc1-c1ccccc1	inactive; negative

Dear colleague, could you send me mutagenic call for each of the items below? Thanks.
1. Nc1ccc(-c2ccc(N)c(Cl)c2)cc1Cl
2. O=C1CCC(=O)N1c1ccc(Cl)c(Cl)c1
3. O=[N+]([O-])c1ccc2c3c(cccc13)CC2
4. C1=Cc2cc3c4ccccc4ccc3c3cccc1c23
5. CCc1cc(Cc2cc(C)c(N)c(CC)c2)cc(C)c1N
6. COC(=O)[C@@H]1O[C@@H]1c1ccccc1
7. C#C[C@]1(O)CC[C@H]2[C@@H]3CCC4=CC(=O)CC[C@@H]4[C@H]3CC[C@@]21C
8. ClCC1C(CCl)[C@@]2(Cl)C(Cl)=C(Cl)[C@]1(Cl)C2(Cl)Cl (some centres undefined)

Given back:
1. active; positive
2. inactive; negative
3. active; positive
4. active; positive
5. inactive; negative
6. inactive; negative
7. inactive; negative
8. inactive; negative

---

System: CCRIS mutagenicity, Ames/micronucleus/aberration tests
Assay: CCRIS mutagenicity studies
Details: Test System: AMES SALMONELLA TYPHIMURIUM; Strain/Indicator: YG1026; Metabolic Activation: RAT, LIVER, S-9, PCB; Method: PREINCUBATION
The source made the active and inactive calls. The rule behind the calls is not given here.
Pick from active, inactive when you respond.

# example entries with known answers
Nc1nc(-c2ccc([N+](=O)[O-])cc2)nc2c1ncn2[C@@H]1O[C@H](CO)[C@@H](O)[C@H]1O active
Nc1nc(-c2ccc([N+](=O)[O-])cc2)nc2nc[nH]c12 active
Nc1ncnc2c1ncn2Cc1ccc([N+](=O)[O-])cc1 inactive

Asked: Could you please tell me the result logged for Nc1ncnc2c1ncn2-c1ccc([N+](=O)[O-])cc1[N+](=O)[O-] in this assay?
Given back: inactive

---

Tested on: CCRIS mutagenicity, Ames/micronucleus/aberration tests
Experiment: CCRIS mutagenicity studies
Conditions: Test System: E. COLI; Strain/Indicator: WP2 UVRA; Metabolic Activation: NONE; Method: STANDARD PLATE
Active and inactive are the calls of the source. How the calls were made is not given here.
Thanks in advance; please answer with one of these: active, inactive

Reference set, count: 2
compound	assayedTarget	groupLabel
CNC(=O)ON=CC(C)(C)SC	CCRIS mutagenicity, Ames/micronucleus/aberration tests	inactive
CC(C(=O)O)c1ccc(Oc2nccs2)cc1 (configuration not stated)	CCRIS mutagenicity, Ames/micronucleus/aberration tests	inactive

From here, focus on the item given below.
Asked: Hello, I am checking results. What call was entered for [O-]/[N+](=N\O)c1ccccc1 ?
Given back: inactive

---

Tested on: CCRIS mutagenicity, Ames/micronucleus/aberration tests
Assay: CCRIS mutagenicity studies
Conditions: Test System: AMES SALMONELLA TYPHIMURIUM; Strain/Indicator: TA104; Metabolic Activation: RAT, LIVER, S-9, AROCLOR 1254; Method: STANDARD PLATE
Activity calls are given as the source filed them. How the calls were made is not given here.
API: response.call in active, inactive

Some entries whose results are on file:
molecule	groupLabel
ClCCl	inactive
ClCC(Cl)(Cl)Cl	active
CC(=O)O[C@H]1CC[C@]2(C)[C@H]3CC[C@]4(C)[C@@H]([C@H](C)CCCC(C)C)CC[C@H]4[C@@H]3C[C@@H]3N(N4C(=O)c5ccccc5C4=O)[C@@]32C1 (some centres undefined)	active

Continue with the molecule presented below.
Asked: Could you check what this test reported for C=C(Cl)Cl ?
Given back: inactive

---

Test system: CCRIS mutagenicity, Ames/micronucleus/aberration tests
Experiment: CCRIS mutagenicity studies
Details: Test System: AMES SALMONELLA TYPHIMURIUM; Strain/Indicator: TA100; Metabolic Activation: RAT, LIVER, S-9, PHENOBARBITAL AND BETA-NAPHTHOFLAVONE; Method: PREINCUBATION
The source made the active and inactive calls. No rule for the calls is given here.
Hello, when you answer, please use one of the following outcomes: active, inactive

Asked: How was COc1ccc2c(c1OC)c(=O)n(C)c1c3cc4c(cc3ccc21)OCO4 classified in this test?
Given back: active

Asked: Which result was noted for this compound in the test: COc1ccc2c(cc3c4c(cc5c(c42)OCO5)C(=O)C(=O)N3C)c1OC
Given back: active

Asked: Per the assay record, what outcome was assigned to CCOc1cc(C=O)ccc1O ?
Given back: inactive

Asked: # fetch the recorded call for COC1=C[C@@H]2[C@@H]3Cc4ccc(OC)c(O)c4[C@]2(CCN3C)CC1=O here
Given back: inactive

Asked: Lab log entry: N#CCc1ccc(Cl)cc1 — outcome as called in the assay?
Given back: inactive

Asked: For Cc1ccc(C(=O)c2cc(O)c(O)c([N+](=O)[O-])c2)cc1 , which call appears in the assay record?
Given back: inactive
